assay text: background-corrected fluorescence of 3'-dye-labeled ssDNA relative to brightest sequence (3'-GCGCG) (fraction); higher = brighter dye fluorescence (less quenching)
reported conditions: dye: Cy5 (3' terminal)
Label class 0 if background-corrected fluorescence falls below 0.4; label class 1 in every other case.

Dear colleague, could you confirm whether TTTTTTGATCATGATGATCATTTTTTTTTTTTTTTCGCCG [GCCGC] has background-corrected fluorescence at or above 0.4?
class 1

Entry to check: TTTTTTGCTGATGCTGATCATTTTTTTTTTTTTTTACACG [GCACA]
class 1

Next: TTTTTGCATCAGCATGCTCATTTTTTTTTTTTTTTTGTAG [GATGT]
class 1

Also, TTTTTTGATGCGCATGATGCTTTTTTTTTTTTTTTCATCA [ACTAC] please.
class 0

Try this sequence too: TTTTTGCAGCATGATGCTGCTTTTTTTTTTTTTTTTTCAA [AACTT]
class 1

Also need TTTTTTGATGCGCATCATGCTTTTTTTTTTTTTTTCATGA [AGTAC] , thanks.
class 1

Would you kindly repeat that for TTTTTTCATGCGCATCAGCATTTTTTTTTTTTTTTGATGT [TGTAG] ?
class 1

Now give it for TTTTTTGCGCAGCATGCTGCTTTTTTTTTTTTTTTATTAA [AATTA] too.
class 1

Likewise for TTTTTTGATGCGCAGCATGATTTTTTTTTTTTTTTCATTC [CTTAC] ?
class 0

Please answer likewise for TTTTTTGATGCTGCTGCTGATTTTTTTTTTTTTTTCAAAC
class 0

Also check TTTTTGCATCATGATGATGATTTTTTTTTTTTTTTTGCCC [CCCGT]
class 0

Also TTTTTTCATGCGCAGCATGATTTTTTTTTTTTTTTGATTC [CTTAG] ?
class 0

Origin of the recorded values: the supplement of paper PMC9428881
